test system: RPMI-8226 leukemia; experiment: NCI tumour cell line growth inhibition, 48 h
# TGI per record follows

[
  {
    "compound": "C=C1CCC[C@@H](C)C(O)[C@@H]2OC(=O)C(=C)[C@@H]2C[C@@H](OC(C)=O)[C@@]2(C)CC[C@@H]1O2 (stereo partly drawn)",
    "assayed-system": "RPMI-8226 leukemia",
    "TGI": "> 50 µM"
  },
  {
    "compound": "CCCCCCCC(=O)OCC/C=C/C1OC1C1OC(=O)/C=C\\C=C\\C(=O)N(C(C)=O)C(=O)/C=C(/C)CCC2OC2C1OC(=O)NC(C)=O (stereo not drawn)",
    "assayed-system": "RPMI-8226 leukemia",
    "TGI": "4.03 µM"
  },
  {
    "compound": "COC1=CC(c2ccc[nH]2)=N/C1=C\\c1[nH]c(C)c(C(=O)CCCCCCCCC(=O)O[C@H]2CC[C@H]3C4CCc5cc(O)ccc5C4CC[C@]23C)c1C (stereo partly drawn)",
    "assayed-system": "RPMI-8226 leukemia",
    "TGI": "> 50 µM"
  },
  {
    "compound": "c1ccc2c(c1)[nH]c1c2nc2ccccn21",
    "assayed-system": "RPMI-8226 leukemia",
    "TGI": "> 100 µM"
  },
  {
    "compound": "CC(C)(C)C(=O)Nc1c(C=O)ccc2[nH]cnc12",
    "assayed-system": "RPMI-8226 leukemia",
    "TGI": "> 100 µM"
  },
  {
    "compound": "O=C1NC(O)c2cc3ccccc3cc2O1 (stereo not drawn)",
    "assayed-system": "RPMI-8226 leukemia",
    "TGI": "> 100 µM"
  },
  {
    "compound": "COc1cc(C2CC(c3ccc(Nc4nc(NCCO)nc(NCCO)n4)cc3)=NN2c2cc(Cl)cc(Cl)c2)cc(OC)c1OC (stereo not drawn)",
    "assayed-system": "RPMI-8226 leukemia",
    "TGI": "6.28 µM"
  },
  {
    "compound": "OCC(O)C(O)C(O)C(/C=N\\Nc1ncnc2c(Br)cc(Br)cc12)=N/Nc1ncnc2c(Br)cc(Br)cc12 (stereo not drawn)",
    "assayed-system": "RPMI-8226 leukemia",
    "TGI": "> 100 µM"
  }
]

* * *

test system: HCT-116 colon; test: NCI tumour cell line growth inhibition, 48 h

[
  {
    "compound": "[N-]=[N+]=CC(=O)CCC(N)C(=O)O (stereo unspecified)",
    "assayed-system": "HCT-116 colon",
    "TGI": "> 250 µM"
  },
  {
    "compound": "COc1nc(Cl)nc(N[C@H](C)c2c3ccccc3cc3ccccc23)n1",
    "assayed-system": "HCT-116 colon",
    "TGI": "24.8 µM"
  },
  {
    "compound": "COC(=O)C1C=CCC2CCCCC21N1CCCC1 (stereo unspecified)",
    "assayed-system": "HCT-116 colon",
    "TGI": "> 100 µM"
  },
  {
    "compound": "CC(O)c1nc(C#N)c(N)o1 (stereo unspecified)",
    "assayed-system": "HCT-116 colon",
    "TGI": "> 100 µM"
  },
  {
    "compound": "O=C1c2cc3c(cc2-c2c1c1cc(F)c(F)cc1c(=O)n2CCCn1ccnc1)OCO3",
    "assayed-system": "HCT-116 colon",
    "TGI": "10.8 µM"
  },
  {
    "compound": "Cc1ccccc1NC(=O)O/N=C(\\Cl)C(C)C",
    "assayed-system": "HCT-116 colon",
    "TGI": "4.79 µM"
  }
]

* * *

test system: RXF 393 renal; assay: NCI tumour cell line growth inhibition, 48 h
endpoint: GI50

[
  {
    "compound": "Nc1cc2c3c(cccc3c1)C(=O)N(CCN1CCCC1)C2=O",
    "endpoint": "GI50",
    "assay-result": "6430 nM"
  },
  {
    "compound": "CCOC(=O)NC(=S)N(CC(=O)c1cc(OC)c(OC)c(OC)c1)c1ccc(Cl)cc1",
    "endpoint": "GI50",
    "assay-result": "17200 nM"
  },
  {
    "compound": "COC1=CC(c2ccc[nH]2)=N/C1=C\\c1[nH]c(C)c(C(=O)CCCCCCCCC(=O)O[C@H]2CC[C@H]3C4CCc5cc(O)ccc5C4CC[C@]23C)c1C (some centres undefined)",
    "endpoint": "GI50",
    "assay-result": "1210 nM"
  },
  {
    "compound": "C[C@@]1(F)[C@H](O)[C@@H](CO)O[C@H]1n1ccc(=O)[nH]c1=O",
    "endpoint": "GI50",
    "assay-result": "> 100000 nM"
  },
  {
    "compound": "COc1ccc(-n2c(=S)sc3c(Cl)nc(C)nc32)c(OC)c1",
    "endpoint": "GI50",
    "assay-result": "2000 nM"
  },
  {
    "compound": "Cc1ccc(/C(=N/Nc2ccc([N+](=O)[O-])cc2)Sc2cc(Cl)c(C)cc2S(N)(=O)=O)cc1",
    "endpoint": "GI50",
    "assay-result": "2010 nM"
  },
  {
    "compound": "CCCCNC(c1ccc(Cl)cc1)C(O)c1ccc(Cl)cc1 (centres undefined)",
    "endpoint": "GI50",
    "assay-result": "1490 nM"
  },
  {
    "compound": "CCCCCCCC/C=C/CCCCCCCC1=NC(C)(C)CN1C(C)(C)CO",
    "endpoint": "GI50",
    "assay-result": "2170 nM"
  },
  {
    "compound": "CCCCCCCC(=O)OCC/C=C/C1OC1C1OC(=O)/C=C\\C=C\\C(=O)N(C(C)=O)C(=O)/C=C(/C)CCC2OC2C1OC(=O)NC(C)=O (centres undefined)",
    "endpoint": "GI50",
    "assay-result": "4340 nM"
  }
]

* * *

test system: BT-549 breast; experiment: NCI tumour cell line growth inhibition, 48 h; in the data active = GI50 below about 0.43 µM; inactive = the rest
Possible outcomes: 1 (yes) for active, 0 (no) for inactive

[
  {
    "compound": "C/C(=N/NC(=S)Nc1ccccc1)c1nc2ccc(Cl)cc2[nH]1",
    "assigned-category": "1 (yes)"
  },
  {
    "compound": "O=C1c2cc3c(cc2-c2c1c1cc(F)c(F)cc1c(=O)n2CCCn1ccnc1)OCO3",
    "assigned-category": "1 (yes)"
  },
  {
    "compound": "COc1cc2c(/C=C3\\C(=O)Nc4ccccc43)c[nH]c2cc1C",
    "assigned-category": "1 (yes)"
  },
  {
    "compound": "CCOC(=O)NC(=S)N(CC(=O)c1cc(OC)c(OC)c(OC)c1)c1ccc(Cl)cc1",
    "assigned-category": "0 (no)"
  },
  {
    "compound": "Cc1ccc(/C(=N/Nc2ccc([N+](=O)[O-])cc2)Sc2cc(Cl)c(C)cc2S(N)(=O)=O)cc1",
    "assigned-category": "0 (no)"
  },
  {
    "compound": "O=C1NC(=NCCc2ccc(Cl)cc2)S/C1=C\\c1ccc2ncccc2c1",
    "assigned-category": "0 (no)"
  },
  {
    "compound": "O=c1c(Cc2ccc3c(c2)OCO3)nnc2sc(-c3cc(F)c(Cl)cc3Cl)nn12",
    "assigned-category": "0 (no)"
  },
  {
    "compound": "O=C1C(=O)c2c(nc3ccc(C(F)(F)F)cn23)-c2ccccc21",
    "assigned-category": "1 (yes)"
  },
  {
    "compound": "COC1=CC(c2ccc[nH]2)=N/C1=C\\c1[nH]c(C)c(C(=O)CCCCCCCCC(=O)O[C@H]2CC[C@H]3C4CCc5cc(O)ccc5C4CC[C@]23C)c1C (some centres undefined)",
    "assigned-category": "0 (no)"
  }
]

* * *

test system: DU-145 prostate; test: NCI tumour cell line growth inhibition, 48 h

[
  {
    "compound": "O=C1NC(=NCCc2ccc(Cl)cc2)S/C1=C\\c1ccc2ncccc2c1",
    "GI50": "24400 nM"
  },
  {
    "compound": "COc1ccc(-n2c(=S)sc3c(Cl)nc(C)nc32)c(OC)c1",
    "GI50": "1840 nM"
  },
  {
    "compound": "COC1=CC(c2ccc[nH]2)=N/C1=C\\c1[nH]c(C)c(C(=O)CCCCCCCCC(=O)O[C@H]2CC[C@H]3C4CCc5cc(O)ccc5C4CC[C@]23C)c1C (stereo partly specified)",
    "GI50": "387 nM"
  },
  {
    "compound": "CCCCNC(c1ccc(Cl)cc1)C(O)c1ccc(Cl)cc1 (stereo unspecified)",
    "GI50": "3100 nM"
  },
  {
    "compound": "CCC[CH2][Sn-]([CH2]CCC)([CH2]CCC)[O]C(=O)C(C)C",
    "GI50": "124 nM"
  },
  {
    "compound": "C[C@@H]1C[C@@H]([C@H](O)CC2CC(=O)NC(=O)C2)C(=O)[C@@H](C)C1",
    "GI50": "247 nM"
  },
  {
    "compound": "Cc1cccc(N2C(=O)/C(=C/C(Cl)=C/c3ccc([N+](=O)[O-])cc3)SC2=S)c1C",
    "GI50": "3980 nM"
  },
  {
    "compound": "COc1ccc2[nH]c(C(=O)N3CCN(C(=O)OCc4ccc5c(Cl)cc(Cl)c(O)c5n4)CC3)cc2c1",
    "GI50": "1190 nM"
  },
  {
    "compound": "CCOC(=O)Nc1ccc2nc(-c3cscn3)[nH]c2c1",
    "GI50": "9610 nM"
  },
  {
    "compound": "C[C@@]1(F)[C@H](O)[C@@H](CO)O[C@H]1n1ccc(=O)[nH]c1=O",
    "GI50": "> 100000 nM"
  },
  {
    "compound": "O=c1[nH]c(C2CCCN2)nc2c1oc1ccc(Cl)cc12 (stereo unspecified)",
    "GI50": "> 100000 nM"
  }
]
